Hello, the source for this data is the NTF2 design screens of Basanta et al. (2020), in case you need it.

Assay: protease stability score; higher = more stable; yeast display proteolysis, trypsin and chymotrypsin;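 note: relative to predicted unfolded state with 0 unfolded-like and 1 meaning tenfold more protease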
Measured protease stability score, listed per entry.
Lab note: jot the number down without any unit.

Prompt: Please look at this sequence and report its protease stability score: `DEEEHEAKRADEVYQHVMETGDERLLNEYFDPHYRLEQGDYELVGREEASRFLIEWMKHWRTEYRLDNYHVIGNKIRLEGELHIRYGNFTRSHRIVTYVLKVDGQWRIKKTEIR`
Completion: 1.64

* * *

Measured protease stability score, listed per entry.
Experiment: protease stability score; higher = more stable; yeast display proteolysis, trypsin and chymotrypsin;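 note: relative to predicted unfolded state with 0 unfolded-like and 1 meaning tenfold more protease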
Lab note: jot the number down without any unit.

A selection of reference data follows.
Prompt: Please look at this sequence and report its protease stability score: `DESMTEAKQILETLNKSLNTGDERLDKELFDPRAKLEFDGREIHGRELILTWLSEWRIEIKDFRIEDIEFQGNKVKMHTRIDMTVDFNGRRIKIDTTMHHDVIKVNGRWLIQRQIIP`
Completion: 1.12

Prompt: Please look at this sequence and report its protease stability score: `TEDDRAFELSMRKWLESHRTGDEKTMHELLDPNARYHIGEFHLHGWKEADRLVREIRIHHVEDKHVEIQGDKIRIHTRVDITINGQKSSVELELVLVKVNGVWFVHSVILR`
Completion: 1.8

Prompt: Please look at this sequence and report its protease stability score: `DELKEISDEIVLMFDRAIRTGDEHTMKKLLDPNYLLRVDGVDIVGRERFTEIIRQFDHVDYESHRIRDVSIQGDKIDVDSETDIHFTYNGKRERRTYRVRIIILKINGRWRIHEVHLH`
Completion: 1.77

Prompt: Please look at this sequence and report its protease stability score: `DEFHHWYERVIQEFDHAVETGNEHRIRELLDPNVRIIIDGQDLHGREDMIHLISEIRVSITDRRERSFRPVGDKINLLMRVDQQVFVDGQTEQVDTEVRWIIIKVNGVWLIRRIEVI`
Completion: 1.47

More entries:
Prompt: Please look at this sequence and report its protease stability score: `DEEDDEAREVHERLVRAFKTGNEELLLKMADPNTRDLFVVDGRTIHLVGWEHWRISLHELRIHDQRIRRSHVIDGRVHSDWEIDVEFNGRRSRKKLEIRIEVVNGVTKSVEFIFR`
Completion: 1.31

Prompt: Please look at this sequence and report its protease stability score: `DETTELVHEVWRVHLESLMTGDFDKFHELADPNAKVDVHYDGRRDDNHGREKLSHQIKRILQEWRVTIRINREDAIGNKLHVDSDLRVNYDGVEIRVRLLSIIVVVNGRFKSIEYHVL`
Completion: 1.29
